Mitogenic Assay Inhibition (%) values, listed per item
Tested on: NIH 3T3 mouse fibroblast cells
Experiment: Mitogenic Assay (mitogen-induced cell proliferation)
Assay type: cell-based
Conditions: measured at 10 μM compound; NIH 3T3 cells
Report as a plain number; the unit % is understood.

Check the records and state Mitogenic Assay Inhibition (%) for C=CCOC1c2ccccc2C(c2ccccc2)(c2ccccc2)C1CC=C (stereo not shown)
90.0

Please give measured Mitogenic Assay Inhibition (%) of the following entry: COC(=O)CC1C(=O)c2ccccc2C1(c1ccccc1)c1ccccc1 (stereo not shown) [Compound 15, 3,3-Diphenylindanone-2-methyl acetate]
80.0

Supply recorded Mitogenic Assay Inhibition (%) for N#CC1OC12CC(c1ccccc1)(c1ccccc1)c1ccccc12 (stereo not shown) here.
29.0

For the compound Clc1ccccc1COC1CC(c2ccccc2)(c2ccccc2)c2ccccc21 (stereo not shown) , report Mitogenic Assay Inhibition (%).
73.0
